Test system: Phosphodiesterase IV (PDE-IV) isolated from human U937 cells
assay name: Inhibition of Phosphodiesterase IV (PDE-IV) Isolated from Human U937 Cells
Assay type: biochemical
experimental conditions: normalized to rolipram; 1 μM [3H]-cAMP substrate
Binned % Inhibition of PDE IV (normalized to rolipram); ranges: range A (below 40%), range B (40% to below 70%), range C (70% or more)

CCCCn1c(=O)c2c(ncn2S(=O)(=O)c2cccc([N+](=O)[O-])c2)n(CCCC)c1=O [Example 3] : range C
CCCCn1c(=O)c2c(ncn2S(=O)(=O)c2ccc(NO)cc2)n(CCCC)c1=O [Example 8] : range C
CCCCn1c(=O)c2c(nc(C)n2S(=O)(=O)c2ccc(C)cc2)n(CCCC)c1=O [Example 20] : range B
CCCCn1c(=O)c2c(ncn2S(=O)(=O)c2c(C)cc(C)cc2C)n(CCCC)c1=O [Example 12] : range B
CCCCn1c(=O)n(CC=C(C)C)c(=O)c2c1ncn2S(=O)(=O)c1ccc(OC)c(OC)c1 [Example 17] : range A
CCCCn1c(=O)n(CC=C(C)C)c(=O)c2c1ncn2S(=O)(=O)c1ccc(C)cc1 [Example 15] : range A
CCCCn1c(=O)n(CC)c(=O)c2c1ncn2S(=O)(=O)c1ccc(C)cc1 [Example 16] : range A
CCCCn1c(=O)c2c(nc(C)n2S(=O)(=O)CCCCl)n(CCCC)c1=O [Example 19] : range A
CCCCn1c(=O)c2c(ncn2S(=O)(=O)c2ccc(C(C)(C)C)cc2)n(CCCC)c1=O [Example 13] : range B
CCCCn1c(=O)c2c(ncn2S(=O)(=O)Cc2ccccc2)n(CCCC)c1=O [Example 9] : range C
CCCCn1c(=O)c2c(ncn2S(=O)(=O)c2c(C)noc2C)n(CCCC)c1=O [Example 14] : range A

// provenance: patent US6221874A
